tested on: Campylobacter sp.; assay: Antibacterial activity against erythromycin resistant Campylobacter sp. assessed as resistance breakpoint by CLSI method; format: functional
Known Activity of a selection of compounds
Provide the reading as a plain figure in %.

{"COMPOUND": "CN(C)[C@@H]1C(O)=C(C(N)=O)C(=O)[C@@]2(O)C(O)=C3C(=O)c4c(O)cccc4[C@@](C)(O)[C@H]3C[C@@H]12", "UNITS TEXT": "%", "Activity": 73.7}
{"COMPOUND": "CC1COc2c(N3CCN(C)CC3)c(F)cc3c(=O)c(C(=O)O)cn1c23 (stereo not drawn)", "UNITS TEXT": "%", "Activity": 84.2}

# input for lookup
Given the entry CC[C@H]1OC(=O)[C@H](C)[C@@H](O[C@H]2C[C@@](C)(OC)[C@@H](O)[C@H](C)O2)[C@H](C)[C@@H](O[C@@H]2O[C@H](C)C[C@H](N(C)C)[C@H]2O)[C@](C)(O)C[C@@H](C)CN(C)[C@H](C)[C@@H](O)[C@]1(C)O , what Activity was observed with Campylobacter sp.?
89.5

---

tested on: Campylobacter coli; assay: Antibacterial activity against Campylobacter coli assessed as resistant isolates by disk diffusion method; type: functional
Known Activity of a selection of molecules
Returns: string containing the number followed by the unit.

Below, each entry is followed by its recorded Activity result.
{"MOLECULE": "O=C(N[C@H](CO)[C@H](O)c1ccc([N+](=O)[O-])cc1)C(Cl)Cl", "PROPERTY": "Activity", "DATA VALUE": "0%"}
{"MOLECULE": "C[C@@H](O)[C@H]1C(=O)N2C(C(=O)O)=C(SCCNC=N)C[C@H]12 [IMIPENEM ANHYDROUS]", "PROPERTY": "Activity", "DATA VALUE": "0%"}
{"MOLECULE": "CCn1cc(C(=O)O)c(=O)c2cc(F)c(N3CCNCC3)cc21", "PROPERTY": "Activity", "DATA VALUE": "83.3%"}
{"MOLECULE": "CN(C)c1cc(NC(=O)CNC(C)(C)C)c(O)c2c1C[C@H]1C[C@H]3[C@H](N(C)C)C(O)=C(C(N)=O)C(=O)[C@@]3(O)C(O)=C1C2=O", "PROPERTY": "Activity", "DATA VALUE": "0%"}
{"MOLECULE": "CCC[C@@H]1C[C@@H](C(=O)N[C@@H]([C@H]2O[C@H](SC)[C@H](O)[C@@H](O)[C@H]2O)[C@H](C)Cl)N(C)C1", "PROPERTY": "Activity", "DATA VALUE": "50%"}

// query Activity value for entry CC1(C)S[C@@H]2[C@H](NC(=O)[C@H](N)c3ccccc3)C(=O)N2[C@H]1C(=O)O
22.2%

Quick one: C[C@@H](O)[C@H]1C(=O)N2C(C(=O)O)=C(S[C@@H]3CN[C@H](C(=O)N(C)C)C3)[C@H](C)[C@H]12
0%

Quick one: C[C@H]1COc2c(N3CCN(C)CC3)c(F)cc3c(=O)c(C(=O)O)cn1c23.C[C@H]1COc2c(N3CCN(C)CC3)c(F)cc3c(=O)c(C(=O)O)cn1c23.O
72.2%

Quick one: CC1COc2c(N3CCN(C)CC3)c(F)cc3c(=O)c(C(=O)O)cn1c23 (stereo not drawn)
83.3%

Quick one: CC[C@H]1OC(=O)[C@H](C)[C@@H](O[C@H]2C[C@@](C)(OC)[C@@H](O)[C@H](C)O2)[C@H](C)[C@@H](O[C@@H]2O[C@H](C)C[C@H](N(C)C)[C@H]2O)[C@](C)(O)C[C@@H](C)C(=O)[C@H](C)[C@@H](O)[C@]1(C)O
50%

---

tested on: Campylobacter sp.; assay: Antibacterial activity against Campylobacter sp. assessed as resistance breakpoint by CLSI method; format: functional
PROPERTY: Activity (µg/mL)
Provide the reading as a plain figure in µg/mL.

Below, each entry is followed by its recorded Activity result.
{"COMPOUND": "CCn1cc(C(=O)O)c(=O)c2ccc(C)nc21", "Activity (µg/mL)": 32}
{"COMPOUND": "CN(C)c1cc(NC(=O)CNC(C)(C)C)c(O)c2c1C[C@H]1C[C@H]3[C@H](N(C)C)C(O)=C(C(N)=O)C(=O)[C@@]3(O)C(O)=C1C2=O", "Activity (µg/mL)": 0.5}
{"COMPOUND": "O=C(N[C@H](CO)[C@H](O)c1ccc([N+](=O)[O-])cc1)C(Cl)Cl", "Activity (µg/mL)": 32}
{"COMPOUND": "CC1COc2c(N3CCN(C)CC3)c(F)cc3c(=O)c(C(=O)O)cn1c23 (stereo unspecified)", "Activity (µg/mL)": 8}
{"COMPOUND": "CC[C@H]1OC(=O)[C@H](C)[C@@H](O[C@H]2C[C@@](C)(OC)[C@@H](O)[C@H](C)O2)[C@H](C)[C@@H](O[C@@H]2O[C@H](C)C[C@H](N(C)C)[C@H]2O)[C@](C)(O)C[C@@H](C)CN(C)[C@H](C)[C@@H](O)[C@]1(C)O", "Activity (µg/mL)": 4}

// query Activity value for entry C[C@@H](O)[C@H]1C(=O)N2C(C(=O)O)=C(SCCNC=N)C[C@H]12 [IMIPENEM ANHYDROUS]
16

---

Known Activity of a selection of compounds
tested on: Campylobacter sp.; assay: Antibacterial activity against erythromycin resistant Campylobacter sp. assessed as resistance breakpoint by CLSI method; format: functional
Provide the reading as a plain figure in %.

{"COMPOUND": "CC1(C)S[C@@H]2[C@H](NC(=O)[C@H](N)c3ccccc3)C(=O)N2[C@H]1C(=O)O", "UNITS TEXT": "%", "Activity": 36.8}

// query Activity value for entry C[C@@H](O)[C@H]1C(=O)N2C(C(=O)O)=C(SCCNC=N)C[C@H]12 [IMIPENEM ANHYDROUS]
0

---

Known MIC50 of a selection of compounds
system: Campylobacter sp.; assay: Antibacterial activity against erythromycin susceptible Campylobacter sp. by agar plate dilution method; assay type: functional
Provide the reading as a plain figure in µg/mL.

Below, each entry is followed by its recorded MIC50 result.
{"COMPOUND": "N[C@@H]1CN(c2c(F)cc3c(=O)c(C(=O)O)cn([C@@H]4C[C@@H]4F)c3c2Cl)CC12CC2 [SITAFLOXACIN ANHYDROUS]", "MIC50 / µg/mL": 0.5}
{"COMPOUND": "C[C@@H](O)[C@H]1C(=O)N2C(C(=O)O)=C(S[C@@H]3CN[C@H](C(=O)N(C)C)C3)[C@H](C)[C@H]12 [MEROPENEM]", "MIC50 / µg/mL": 4}
{"COMPOUND": "CN(C)[C@@H]1C(O)=C(C(N)=O)C(=O)[C@@]2(O)C(O)=C3C(=O)c4c(O)cccc4[C@@](C)(O)[C@H]3C[C@@H]12 [TETRACYCLINE]", "MIC50 / µg/mL": 2}
{"COMPOUND": "CCC[C@@H]1C[C@@H](C(=O)N[C@@H]([C@H]2O[C@H](SC)[C@H](O)[C@@H](O)[C@H]2O)[C@H](C)Cl)N(C)C1 [CLINDAMYCIN]", "MIC50 / µg/mL": 2}
{"COMPOUND": "CC1(C)S[C@@H]2[C@H](NC(=O)[C@H](N)c3ccccc3)C(=O)N2[C@H]1C(=O)O [AMPICILLIN]", "MIC50 / µg/mL": 0.5}

Given the entry O=C(N[C@H](CO)[C@H](O)c1ccc([N+](=O)[O-])cc1)C(Cl)Cl [CHLORAMPHENICOL] , what MIC50 was observed with Campylobacter sp.?
0.125

Quick one: CC[C@H]1OC(=O)[C@H](C)[C@@H](O[C@H]2C[C@@](C)(OC)[C@@H](O)[C@H](C)O2)[C@H](C)[C@@H](O[C@@H]2O[C@H](C)C[C@H](N(C)C)[C@H]2O)[C@](C)(O)C[C@@H](C)C(=O)[C@H](C)[C@@H](O)[C@]1(C)O [ERYTHROMYCIN]
2

Quick one: C[C@H]1COc2c(N3CCN(C)CC3)c(F)cc3c(=O)c(C(=O)O)cn1c23.C[C@H]1COc2c(N3CCN(C)CC3)c(F)cc3c(=O)c(C(=O)O)cn1c23.O [LEVOFLOXACIN]
1

Quick one: CC[C@H]1OC(=O)[C@H](C)[C@@H](O[C@H]2C[C@@](C)(OC)[C@@H](O)[C@H](C)O2)[C@H](C)[C@@H](O[C@@H]2O[C@H](C)C[C@H](N(C)C)[C@H]2O)[C@](C)(OC)C[C@@H](C)C(=O)[C@H](C)[C@@H](O)[C@]1(C)O [CLARITHROMYCIN]
0.25

Quick one: C[C@@H](O)[C@H]1C(=O)N2C(C(=O)O)=C(SCCNC=N)C[C@H]12 [IMIPENEM ANHYDROUS]
0.016

These data points were gathered from ChEMBL document CHEMBL1255394.
